SYSTEM_TESTED: UniProt:P10276
Sequence (P10276 183-417 limits assumed): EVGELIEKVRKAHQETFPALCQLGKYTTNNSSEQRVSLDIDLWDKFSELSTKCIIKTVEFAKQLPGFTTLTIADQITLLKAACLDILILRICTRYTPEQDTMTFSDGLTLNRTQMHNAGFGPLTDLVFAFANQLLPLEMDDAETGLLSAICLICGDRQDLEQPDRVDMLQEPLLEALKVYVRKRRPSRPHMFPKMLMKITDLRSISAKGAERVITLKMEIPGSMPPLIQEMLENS
PROTOCOL: Transactivation test (Kdapp), RARalpha
Assay type: cell-based
SETUP_CONDITIONS: HeLa stable transfectants, luciferase reporter; crossed curves against reference agonist, Schild regression
PROPERTY_MEASURED: pKd
One number for each entry, as −log10 of the molar value.

Illustrative cases are given below, each with its answer.
{"columns": ["MOLECULE", "pKd"],
 "data": [
  ["CCNc1ccc(-c2cc(-c3ccc(C(=O)O)cc3)ccc2OCCCO)cc1C(C)(C)C [Example 54]", 8.10],
  ["CCN(CC)c1ccc(-c2cc(-c3ccc(C(=O)O)cc3)ccc2CC(O)CO)cc1C(C)(C)C (stereo not shown) [Example 35]", 5.40],
  ["CCc1cc(-c2cc(-c3ccc(C(=O)O)cc3)ccc2OCCO)ccc1N(CC)CC [Example 13]", 6.30],
  ["CCN(C(C)=O)c1ccc(-c2cc(-c3ccc(C(=O)O)cc3)ccc2OCCCCO)cc1C(C)(C)C [Example 5]", 8.10]
]}

Answer for every listed entry: what is its pKd? The entries follow.
1. CCN(C(C)=O)c1ccc(-c2cc(-c3ccc(C(=O)O)cc3)ccc2CCCO)cc1C(C)(C)C [Example 37]
2. CCN(CC)c1ccc(-c2cc(-c3ccc(C(=O)O)cc3)ccc2OCCCO)cc1C [Example 17]
3. CCN(CC)c1ccc(-c2cc(-c3ccc(C(=O)O)cc3)ccc2CCCO)cc1C(C)(C)C [Example 33]

Result:
1: 6.60; 2: 6.60; 3: 7.22

Cited source for all entries: patent US8470871B2
